- Tested on: PfAP2-LT AP2 domain (GST-tagged)
- procedureDetails: gcPBM binding intensity (ln(normalized median fluorescence intensity)); higher = stronger DNA binding
In all, about 25,000 sequences were measured (“ln(normalized median fluorescence intensity)”: median about 8.9, highest 2% from about 10 on). The entries come from a sample that favours the highest values as a whole.
observationType: gcPBM binding intensity (ln)
Number only, please.

Entry TACTGATCTTTCTAGGTGCGCTGCTACCATTATCGT [GTGCAC_site9538] has what gcPBM binding intensity (ln)?
8.99

Entry AGTATACATATATATACACACACATATATATATATA [CACACA_site7883] : reported gcPBM binding intensity (ln) = ?
9.8

Look up gcPBM binding intensity (ln) for this sequence: AGTATACAGATATATACACACATATATATATATATA [CACACA_site4323]
9.94

Form field: reported gcPBM binding intensity (ln) of CGCATACACCAACACACACACACATATATATATATA [CACACA_site635]
9.96

Name the reported gcPBM binding intensity (ln) value associated with the sequence TACAGAATTGTATATAGTACATAAAACAATATATAT [XGTACX_site7275]
8.88
